- tested target: Bcl-2-like protein 1 (Homo sapiens, UniProt Q07817)
- Sequence (Q07817 whole entry): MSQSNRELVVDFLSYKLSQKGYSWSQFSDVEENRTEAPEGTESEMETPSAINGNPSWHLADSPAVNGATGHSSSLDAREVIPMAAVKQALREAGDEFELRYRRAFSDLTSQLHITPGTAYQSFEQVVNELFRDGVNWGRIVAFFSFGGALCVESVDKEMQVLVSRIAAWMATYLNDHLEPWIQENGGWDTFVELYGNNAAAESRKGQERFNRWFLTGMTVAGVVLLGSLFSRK
- assay name: Binding affinity Bcl-xL by isothermal titration calorimetry assay
pKd: −log10 of the molar value.
measurement kind: pKd

| smiles structure | tested target | measurement kind | experimental result |
| --- | --- | --- | --- |
| CC1=C(C2=C(C)C(=O)c3c(cc(O)c(O)c3CCc3ccc(C)cc3)C2=O)C(=O)c2cc(O)c(O)c(CCc3ccc(C)cc3)c2C1=O | Bcl-2-like protein 1 (Homo sapiens, UniProt Q07817) | pKd | 5.60 |
| CC1=C(C2=C(C)C(=O)c3c(cc(O)c(O)c3Cc3ccccc3)C2=O)C(=O)c2cc(O)c(O)c(Cc3ccccc3)c2C1=O | Bcl-2-like protein 1 (Homo sapiens, UniProt Q07817) | pKd | 6.35 |
